system: PC-3 prostate; assay: NCI tumour cell line growth inhibition, 48 h
Reported values of log10(TGI) for individual entries
Annotation: log10 of TGI, µM basis.

Cc1c2c3cc(O)ccc3nc-2n(C)c2ccccc12 : 0.77
CCN(CC)CCO/N=C1\CC[C@H]2[C@@H]3CC=C4C[C@@H](O)CC[C@]4(C)[C@H]3CC[C@]12C : 1.70
CCCCC[C@@H]1OCO[C@@]2(C)/C=C(C)/C=C/C(=O)O[C@H]([C@@H](C)[C@@H](O)[C@H](C)[C@@]3(O)C[C@@H](O[C@H]4C[C@@H](O)[C@H](O)[C@@H](C)O4)[C@H](C)[C@@H](C)O3)[C@@H](OC)/C=C/C=C(\C)C[C@@H]1[C@@H]2O (stereo in doubt) : 0.21

## Task // lookup log10(TGI) for N#Cc1c(NC(=O)c2ccccc2)sc2c1CCC(=O)C2
## Result 1.12

## Task Given the entry O=C1/C(=C/c2ccccc2)CCc2ccc(Cl)nc21 , report its measured log10(TGI).
## Result 1.48
